melting point values, listed per item
Give the quantity in °C, number only.

The examples below pair each entry with its known result.
INSERT INTO assay_data (compound, observation_type, result_number) VALUES
  ('COC(=O)C1=C(C)NC(=O)NC1c1ccc([N+](=O)[O-])cc1[N+](=O)[O-] (stereo not drawn)', 'melting point', 210),
  ('COC(=O)C1=C(C)NC(=S)NC1c1ccc(C(F)(F)F)cc1 (stereo not drawn)', 'melting point', 190);

Would you kindly look at the next entry?
Query: melting point; subject: CC1=C(C(=O)N2CCCCC2)C(c2ccc(Br)cc2)NC(=S)N1 (stereo not drawn) 258
